- Test Target: HDAC6 human recombinant (Homo sapiens)
- Construct: purchased Calbiochem 382180
- Protocol Summary: HDAC enzyme activity inhibition (in vitro), HDAC6 assay
- Assay type: biochemical
- Measurement Context: samples at 0.1, 1, 10, 100 and 1000 nM; 37° C. 60 minutes; fluorescence Ex 390, Em 460; read-out: HDAC6 IC50
pIC50: −log10 of the molar value.
Parameter: pIC50

>>> reported("O=C(N1CCOCC1)N1CCC(n2c(=O)n(Cc3ccc(-c4nnc(C(F)F)o4)cn3)c3cc(F)ccc32)CC1")
7.49

I = O=c1n(Cc2ccc(-c3nnc(C(F)F)o3)cc2F)c2cc(F)c(F)cc2n1C1CCN(C2COC2)CC1
II = CCN1CCC(n2c(=O)n(Cc3ccc(-c4nnc(C(F)F)o4)cn3)c3ccc(-c4cccnc4)cc32)CC1
III = CN1CCC(n2c(=O)n(Cc3ccc(-c4nnc(C(F)F)o4)cc3F)c3ccccc32)CC1
IV = O=c1oc2ccccc2n1Cc1ccc(-c2nnc(C(F)F)o2)cc1F
Task: // ranking: key=pIC50, reverse=True Reply: labels, ordered per the request.
Output: II, I, III, IV

###

- Test Target: HDAC6 human recombinant (Homo sapiens)
- Construct: purchased Calbiochem 382180
- Protocol Summary: HDAC enzyme activity inhibition (in vitro), HDAC6 assay
- Assay type: biochemical
- Measurement Context: samples at 0.1, 1, 10, 100 and 1000 nM; 37° C. 60 minutes; fluorescence Ex 390, Em 460; read-out: HDAC6 IC50
pIC50: −log10 of the molar value.
Parameter: pIC50

These solved cases illustrate the format of a correct answer.
>>> reported("O=c1n(Cc2ccc(-c3nnc(C(F)F)o3)cc2)c2cc(Cl)c(Cl)cc2n1C1CCN(C2COC2)CC1 [Compound 86]")
7.55
>>> reported("O=c1n(CCN2CC3(COC3)C2)c2ccccc2n1Cc1ccc(-c2nnc(C(F)F)o2)cc1 [Compound 26]")
6.68

P = CN1CCC(n2c(=O)n(Cc3ccc(-c4nnc(C(F)F)o4)cn3)c3ccc(Cl)cc32)CC1 [Compound 97]
Q = O=c1n(Cc2ccc(-c3nnc(C(F)F)o3)cc2F)c2ccccc2n1C1CCN(Cc2cccc3cc[nH]c23)CC1 [Compound 19]
R = CS(=O)(=O)N1CCC(n2c(=O)n(Cc3ccc(-c4nnc(C(F)F)o4)cn3)c3cc(Cl)ccc32)CC1 [Compound 216]
S = CN1CCN(c2cc3c(cc2F)n(Cc2ccc(-c4nnc(C(F)F)o4)cn2)c(=O)n3-c2cccnc2)CC1 [Compound 328]
T = O=c1n(CCN2CCOCC2)c2cc(-c3cccc4[nH]ccc34)c(F)cc2n1Cc1ccc(-c2nnc(C(F)F)o2)cn1 [Compound 269]
Task: Place the items in sequence of falling pIC50. Note for the reader: the ranking is given by listing the labels in the order requested.
Output: T, R, P, S, Q

P = CN1CCC(n2c(=O)n(Cc3ccc(-c4nnc(C(F)F)o4)cc3F)c3cc(F)c(-c4ccncc4)cc32)CC1 [Compound 118]
Q = CN1CCC(n2c(=O)n(Cc3ccc(-c4nnc(C(F)F)o4)cn3)c3cc(Cl)ccc32)CC1 [Compound 213]
R = CC(=O)N1CCC(n2c(=O)n(Cc3ccc(-c4nnc(C(F)F)o4)cc3F)c3ccccc32)CC1 [Compound 17]
S = CN1CCC(n2c(=O)n(Cc3ccc(-c4nnc(C(F)F)o4)cc3)c3cc(F)ccc32)CC1 [Compound 79]
Task: Sort by pIC50, descending. When ranking, write the labels in the order the request describes.
Output: Q, P, S, R

A = Cn1c(=O)n(Cc2ccc(-c3nnc(C(F)F)o3)cn2)c2cc(F)c(-c3cccc(F)c3)cc21 [Compound 166]
B = CC(C)N1CCN(c2ccc(-c3cc4oc(=O)n(Cc5ccc(-c6nnc(C(F)F)o6)cn5)c4cc3F)cn2)CC1 [Compound 349]
Task: // max by pIC50 over [ A , B ] Give the label of your selection.
Output: A

P = CC(=O)N1CCC(n2c(=O)n(Cc3ccc(-c4nnc(C(F)F)o4)cc3F)c3cc(C(F)(F)F)ccc32)CC1 [Compound 180]
Q = CN1CC[C@@H](n2c(=O)n(Cc3ccc(-c4nnc(C(F)F)o4)cn3)c3cc(F)c(-c4cccc5[nH]ccc45)cc32)C1 [Compound 273]
Task: Quick check, higher pIC50 between P and Q ? // caller expects the label of the chosen entry
Output: Q

A = O=c1n(Cc2ccc(-c3nnc(C(F)F)o3)cc2)c2cc(F)c(F)cc2n1C1CCN(C2COC2)CC1 [Compound 96]
B = Cc1oncc1C(=O)N1CCC(n2c(=O)n(Cc3ccc(-c4nnc(C(F)F)o4)cn3)c3cc(F)ccc32)CC1 [Compound 65]
Task: Between item A and item B , which reported pIC50 is smaller? Choose, then provide that item's label.
Output: B

a = O=c1n(Cc2ccc(-c3nnc(C(F)F)o3)cn2)c2cc(F)ccc2n1C1CCN(C2CCOCC2)CC1 [Compound 55]
b = CCN1CCC(n2c(=O)n(Cc3ccc(-c4nnc(C(F)F)o4)cn3)c3ccc(-c4ccncc4)cc32)CC1 [Compound 283]
c = Cn1c(=O)n(Cc2ccc(-c3nnc(C(F)F)o3)cn2)c2cc(F)c(N3CCN(C4COC4)CC3)cc21 [Compound 264]
d = Cc1ccc(-c2ccc3c(c2)n(Cc2ccc(-c4nnc(C(F)F)o4)cc2)c(=O)n3C2CCN(C)CC2)o1 [Compound 130]
Task: Rank the items in ascending order with respect to pIC50. Lab note: record answer as labels in requested order.
Output: d, c, a, b
(d: 6.54, c: 7.21, a: 7.41, b: 7.64)

a = O=C(c1cncnc1)N1CCC(n2c(=O)n(Cc3ccc(-c4nnc(C(F)F)o4)cn3)c3cc(F)ccc32)CC1 [Compound 64]
b = CN1CCC(n2c(=O)n(Cc3ccc(-c4nnc(C(F)F)o4)cn3)c3cc(F)c(-c4ccc5c(ccn5C(=O)OC(C)(C)C)c4)cc32)CC1 [Compound 251]
Task: I need your help: which of the pair a , b has higher pIC50? Record your answer as the label of the chosen record.
Output: a
(a: 7.36, b: 6.43)

A = Cn1c(=O)n(Cc2ccc(-c3nnc(C(F)F)o3)cn2)c2ccc(-c3ccsc3)cc21 [Compound 219]
B = Cn1c(=O)n(Cc2ccc(-c3nnc(C(F)F)o3)cn2)c2cc(F)c(N3CCN(Cc4cccc5[nH]ccc45)CC3)cc21 [Compound 284]
Task: Which value of pIC50 is numerically greater: that of A or that of B ? Indicate your choice by writing its label.
Output: A
(A: 7.48, B: 7.23)

###

- Test Target: HDAC6 human recombinant (Homo sapiens, UniProt Q9UBN7)
- Construct: purchased Calbiochem 382180
- Sequence (Q9UBN7 whole entry): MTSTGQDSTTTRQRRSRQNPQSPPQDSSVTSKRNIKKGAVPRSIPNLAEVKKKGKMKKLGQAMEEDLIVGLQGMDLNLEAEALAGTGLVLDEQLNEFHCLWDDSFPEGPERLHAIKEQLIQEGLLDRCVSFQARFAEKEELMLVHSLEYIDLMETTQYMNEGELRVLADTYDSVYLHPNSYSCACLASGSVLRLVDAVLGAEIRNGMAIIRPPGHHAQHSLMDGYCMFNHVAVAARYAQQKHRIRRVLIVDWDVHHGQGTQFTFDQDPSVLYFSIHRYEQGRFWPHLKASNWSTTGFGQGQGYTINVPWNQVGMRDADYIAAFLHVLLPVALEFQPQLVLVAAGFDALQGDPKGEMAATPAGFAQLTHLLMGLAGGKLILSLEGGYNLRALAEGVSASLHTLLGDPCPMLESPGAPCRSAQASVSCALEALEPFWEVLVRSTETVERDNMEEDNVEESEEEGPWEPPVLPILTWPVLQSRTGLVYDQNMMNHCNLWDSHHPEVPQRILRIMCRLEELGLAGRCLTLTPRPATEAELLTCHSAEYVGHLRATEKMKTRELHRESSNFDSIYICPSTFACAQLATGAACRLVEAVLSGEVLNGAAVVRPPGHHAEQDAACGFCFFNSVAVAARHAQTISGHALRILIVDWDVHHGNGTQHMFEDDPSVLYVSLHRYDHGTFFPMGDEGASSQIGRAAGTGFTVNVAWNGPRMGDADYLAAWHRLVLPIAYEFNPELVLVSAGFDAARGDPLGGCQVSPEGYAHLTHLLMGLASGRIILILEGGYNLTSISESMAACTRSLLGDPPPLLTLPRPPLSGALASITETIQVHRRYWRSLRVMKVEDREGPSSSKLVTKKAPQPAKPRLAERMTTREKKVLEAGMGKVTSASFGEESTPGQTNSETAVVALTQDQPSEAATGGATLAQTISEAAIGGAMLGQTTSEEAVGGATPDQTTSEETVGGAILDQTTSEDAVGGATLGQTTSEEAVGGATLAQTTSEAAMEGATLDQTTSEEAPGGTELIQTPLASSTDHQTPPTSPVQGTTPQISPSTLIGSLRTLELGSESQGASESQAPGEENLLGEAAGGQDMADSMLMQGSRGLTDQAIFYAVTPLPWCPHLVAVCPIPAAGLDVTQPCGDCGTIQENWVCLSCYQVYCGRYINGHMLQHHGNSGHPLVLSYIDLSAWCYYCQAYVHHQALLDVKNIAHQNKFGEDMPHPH
- Protocol Summary: HDAC enzyme activity inhibition (in vitro), HDAC6 assay
- Type: biochemical
- Measurement Context: samples at 0.1, 1, 10, 100 and 1000 nM; 37° C. 60 minutes; fluorescence Ex 390, Em 460; read-out: HDAC6 IC50
Parameter: IC50 (nM)

Sample records with IC50:
>>> reported("O=c1n(Cc2ccc(-c3nnc(C(F)F)o3)cn2)c2cc(F)c(-c3ccncc3)cc2n1[C@@H]1CCN(C2COC2)C1 [Compound 287]")
14
>>> reported("CC(=O)N1CCC(n2c(=O)n(Cc3ccc(-c4nnc(C(F)F)o4)cc3)c3ncccc32)CC1 [Compound 186]")
554
>>> reported("CN(C)CCn1c(=O)n(Cc2ccc(-c3nnc(C(F)F)o3)cn2)c2cc(F)c(-c3cccnc3)cc21 [Compound 326]")
160
>>> reported("CN1CCN(c2ccc(-c3cc4oc(=O)n(Cc5ccc(-c6nnc(C(F)F)o6)cn5)c4cc3F)cn2)CC1 [Compound 346]")
47
>>> reported("CN1CCC[C@@H](n2c(=O)n(Cc3ccc(-c4nnc(C(F)F)o4)cn3)c3cc(F)c(-c4cccc5[nH]ccc45)cc32)C1 [Compound 276]")
15
>>> reported("Cc1cc2cc(-c3cc4c(cc3F)n(Cc3ccc(-c5nnc(C(F)F)o5)cn3)c(=O)n4C3CCN(C)CC3)ccc2n1C(=O)OC(C)(C)C [Compound 252]")
207

a = CN1CCC(n2c(=O)n(Cc3ccc(-c4nnc(C(F)F)o4)cc3F)c3ncccc32)CC1 [Compound 103]
b = CC(=O)N1CCC(n2c(=O)n(Cc3ccc(-c4nnc(C(F)F)o4)cc3F)c3ncccc32)CC1 [Compound 185]
c = Cc1ccc(C(=O)N2CCC(n3c(=O)n(Cc4ccc(-c5nnc(C(F)F)o5)cn4)c4cc(F)ccc43)CC2)o1 [Compound 66]
Task: Put the items in order so that reported IC50 rises from first to last. Return the labels ranked in the requested order, please.
Output: c, b, a
(c: 72 nM, b: 202 nM, a: 342 nM)

1 = O=c1n(Cc2ccc(-c3nnc(C(F)F)o3)cn2)c2cc(Cl)c(Cl)cc2n1C1CCN(C2COC2)CC1 [Compound 82]
2 = Cn1c(=O)n(Cc2ccc(-c3nnc(C(F)F)o3)cn2)c2cc(F)c(-c3ccc(S(C)(=O)=O)cc3)cc21 [Compound 225]
3 = O=c1oc2cc(-c3cccnc3)ccc2n1Cc1ccc(-c2nnc(C(F)F)o2)cn1 [Compound 304]
4 = Cc1ccc(-c2ccc3c(c2)n(Cc2ccc(-c4nnc(C(F)F)o4)cn2)c(=O)n3C2CCN(C)CC2)o1 [Compound 146]
Task: Reorder the items by IC50, least to greatest. Form field (ranking): labels in requested order.
Output: 2, 1, 3, 4
(2: 11 nM, 1: 23 nM, 3: 37 nM, 4: 130 nM)

Recorded values, source patent US20230092890A1.
